# target under test: Sodium channel protein type 9 subunit alpha (Homo sapiens, UniProt Q15858)
# Sequence (Q15858 whole entry): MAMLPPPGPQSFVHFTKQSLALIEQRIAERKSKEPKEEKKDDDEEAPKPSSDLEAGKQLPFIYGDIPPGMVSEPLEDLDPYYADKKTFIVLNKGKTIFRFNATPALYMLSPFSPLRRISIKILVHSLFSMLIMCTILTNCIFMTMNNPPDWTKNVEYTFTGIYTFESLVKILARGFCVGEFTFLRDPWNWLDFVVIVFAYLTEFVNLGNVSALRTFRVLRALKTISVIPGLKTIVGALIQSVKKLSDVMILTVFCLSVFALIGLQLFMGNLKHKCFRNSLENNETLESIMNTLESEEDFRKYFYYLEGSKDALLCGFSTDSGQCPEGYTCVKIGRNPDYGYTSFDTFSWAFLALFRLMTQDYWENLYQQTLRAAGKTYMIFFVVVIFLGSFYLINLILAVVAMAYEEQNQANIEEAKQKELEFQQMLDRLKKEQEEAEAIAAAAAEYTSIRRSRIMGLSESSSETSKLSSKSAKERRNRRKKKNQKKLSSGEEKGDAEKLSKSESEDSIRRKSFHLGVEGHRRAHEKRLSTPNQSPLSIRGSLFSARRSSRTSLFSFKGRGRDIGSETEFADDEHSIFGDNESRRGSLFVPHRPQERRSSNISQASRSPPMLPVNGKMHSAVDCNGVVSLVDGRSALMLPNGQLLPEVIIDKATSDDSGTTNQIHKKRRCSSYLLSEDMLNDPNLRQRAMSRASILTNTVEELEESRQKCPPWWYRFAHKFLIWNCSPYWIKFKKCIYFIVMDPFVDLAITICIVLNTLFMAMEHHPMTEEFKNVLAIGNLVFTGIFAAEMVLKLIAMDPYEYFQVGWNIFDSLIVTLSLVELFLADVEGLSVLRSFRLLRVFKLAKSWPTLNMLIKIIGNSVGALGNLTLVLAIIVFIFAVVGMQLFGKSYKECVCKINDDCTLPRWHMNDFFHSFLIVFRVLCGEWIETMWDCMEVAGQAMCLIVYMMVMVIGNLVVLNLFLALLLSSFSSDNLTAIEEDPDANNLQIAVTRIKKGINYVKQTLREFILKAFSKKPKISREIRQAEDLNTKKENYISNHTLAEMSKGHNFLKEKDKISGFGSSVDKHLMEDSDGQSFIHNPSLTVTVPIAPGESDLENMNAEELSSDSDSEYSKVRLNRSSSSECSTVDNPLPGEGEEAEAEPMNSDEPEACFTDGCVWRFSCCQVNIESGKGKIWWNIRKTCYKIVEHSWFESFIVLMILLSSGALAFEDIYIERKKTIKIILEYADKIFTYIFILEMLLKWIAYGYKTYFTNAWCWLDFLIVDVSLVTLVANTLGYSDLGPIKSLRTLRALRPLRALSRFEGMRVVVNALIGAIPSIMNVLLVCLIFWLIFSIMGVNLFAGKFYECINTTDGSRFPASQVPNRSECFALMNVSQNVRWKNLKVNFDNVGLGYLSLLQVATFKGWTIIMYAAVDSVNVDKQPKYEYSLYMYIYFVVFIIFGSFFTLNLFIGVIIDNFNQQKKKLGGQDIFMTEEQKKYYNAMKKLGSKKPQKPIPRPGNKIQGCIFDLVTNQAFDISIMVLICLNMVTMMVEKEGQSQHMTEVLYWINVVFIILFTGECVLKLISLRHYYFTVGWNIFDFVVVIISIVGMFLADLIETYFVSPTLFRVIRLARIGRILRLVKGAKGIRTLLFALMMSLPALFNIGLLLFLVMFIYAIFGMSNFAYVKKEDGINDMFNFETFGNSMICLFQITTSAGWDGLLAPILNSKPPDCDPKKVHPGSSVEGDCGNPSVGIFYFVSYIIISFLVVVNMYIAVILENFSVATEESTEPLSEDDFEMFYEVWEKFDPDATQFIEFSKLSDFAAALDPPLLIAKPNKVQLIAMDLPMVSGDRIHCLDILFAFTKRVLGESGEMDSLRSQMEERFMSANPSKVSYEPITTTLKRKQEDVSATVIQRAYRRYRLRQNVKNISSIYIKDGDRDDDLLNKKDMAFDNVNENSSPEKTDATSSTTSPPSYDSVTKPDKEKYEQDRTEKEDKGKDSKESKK
# assay info: Inhibition of human Nav1.7 at -60 mV holding potential by cell-based IonWorks barracuda automated electrophysiology method
pIC50: −log10 of the molar value.
endpoint label: pIC50

Cc1cn(C2CCCCC2)c2ccc(C(=O)NS(=O)(=O)C3CC3)cc12
7.43
Cn1cc(C2=CCOCC2)c2ccc(C(=O)NS(=O)(=O)C3CC3)cc21
4.70
C[C@@H]1CC[C@@H](c2cn(C)c3cc(C(=O)NS(=O)(=O)C4CC4)ccc23)C1
6.29

1: Cn1cc(C2=CCN(C(=O)OC(C)(C)C)CC2)c2ccc(C(=O)NS(=O)(=O)C3CC3)cc21
2: COc1ncc(-c2c(C3CCCCC3)c3ccc(C(=O)NS(=O)(=O)C4CC4)cc3n2C)cn1
Q: Higher pIC50: 1 or 2 ? Respond with the label that goes with your answer.
A: 2

---

The reader will find reported pIC50 values listed item by item below.
# target under test: Sodium channel protein type 5 subunit alpha (Homo sapiens)
# assay info: Inhibition of human Nav1.5 at -50 mV holding potential by cell-based IonWorks barracuda automated electrophysiology method
pIC50: −log10 of the molar value.

Cn1cc(C2CCCC(C)(C)C2)c2ccc(C(=O)NS(=O)(=O)C3CC3)cc21 (stereo not drawn)
5.39

Q: I have this molecule here, Cn1cc(C2C3CC4CC(C3)CC2C4)c2ccc(C(=O)NS(=O)(=O)C3CC3)cc21 (stereo not drawn) , and I need its recorded pIC50.
A: 5.08

Q: Using the record for Cn1cc(C2=CCOCC2)c2ccc(C(=O)NS(=O)(=O)C3CC3)cc21 , report its pIC50.
A: < 4.52

Q: I'd like to know its pIC50. The molecule in question is Cn1cc(C2(C)CCCCO2)c2ccc(C(=O)NS(=O)(=O)C3CC3)cc21 (stereo not drawn)
A: < 4.52

Q: May I ask what pIC50 has been recorded for C[C@H]1CC[C@@H](c2cn(C)c3cc(C(=O)NS(=O)(=O)C4CC4)ccc23)C1 ?
A: 5.27

Q: What does the record list as pIC50 for CN1CCC(c2cn(C)c3cc(C(=O)NS(=O)(=O)C4CC4)ccc23)CC1 ?
A: < 4.52

---

# target under test: Sodium channel protein type 9 subunit alpha (Homo sapiens, UniProt Q15858)
# assay info: Inhibition of human Nav1.7 at -60 mV holding potential by cell-based IonWorks barracuda automated electrophysiology method
endpoint label: IC50 (nM)

Worked cases, answers included:
Cn1cc(C2CCC(C(C)(C)C)CC2)c2ccc(C(=O)NS(=O)(=O)C3CC3)cc21 (stereo not given)
45
C[C@H]1CC[C@@H](c2cn(C)c3cc(C(=O)NS(=O)(=O)C4CC4)ccc23)C1
62
Cc1cn(C2C=CCCC2)c2ccc(C(=O)NS(=O)(=O)C3CC3)cc12 (stereo not given)
72
Cn1cc(C2CCCCC2)c2cc(F)c(C(=O)NS(=O)(=O)C3CC3)cc21
30
Cn1cc(C2CCCCCC2)c2ccc(C(=O)NS(=O)(=O)C3CC3)cc21
116
Cn1cc(C2CCCN(C(=O)OC(C)(C)C)C2)c2ccc(C(=O)NS(=O)(=O)C3CC3)cc21 (stereo not given)
388

a: Cn1c(-c2ccc(C#N)nc2)c(C2CCCCC2)c2ccc(C(=O)NS(=O)(=O)C3CC3)cc21
b: Cn1cc(C2CCCCC2)c2ccc(C(=O)NS(=O)(=O)C3CC3)cc21
c: Cn1c(-c2ccoc2)c(C2CCCCC2)c2ccc(C(=O)NS(=O)(=O)C3CC3)cc21
d: Cn1cc(C2C3CC4CC(C3)CC2C4)c2ccc(C(=O)NS(=O)(=O)C3CC3)cc21 (stereo not given)
e: O=C(NS(=O)(=O)C1CC1)c1ccc2c(C3CCCCC3)c3n(c2c1)CCCCC3=O
Q: Endpoint returns the given compounds ordered by ascending IC50. Write the labels, ordered according to the request.
A: b, d, a, c, e
(b: 42 nM, d: 79 nM, a: 123 nM, c: 440 nM, e: 1500 nM)

---

# target under test: Sodium channel protein type 9 subunit alpha (Homo sapiens)
# assay info: Inhibition of human Nav1.7 at -60 mV holding potential by cell-based IonWorks barracuda automated electrophysiology method
endpoint label: IC50 (µM)

CCC(c1cn(C)c2cc(C(=O)NS(=O)(=O)C3CC3)ccc12)C(C)(C)C (stereo not given)
1.2

A: Cn1cc(C(C)(C)C)c2ccc(C(=O)NS(=O)(=O)C3CC3)cc21
B: Cn1cc(C2CCCC(C)(C)C2)c2ccc(C(=O)NS(=O)(=O)C3CC3)cc21 (stereo not given)
C: Cn1cc(C2CCC2)c2ccc(C(=O)NS(=O)(=O)C3CC3)cc21
Q: With regard to IC50, arrange the entries in ascending order, please. I'd appreciate it if you listed the labels in the requested order.
A: B, C, A
(B: 0.048 µM, C: 0.36 µM, A: 1.1 µM)

---

# target under test: Sodium channel protein type 9 subunit alpha (Homo sapiens)
# assay info: Inhibition of human Nav1.7 at -60 mV holding potential by cell-based manual patch clamp electrophysiology method
endpoint label: IC50 (nM)

Please review the following examples before continuing.
Cn1cc(C2CCCCC2)c2ccc(C(=O)NS(=O)(=O)C3CC3)cc21
55
Cn1c(-c2ccc(N3CCCC3)nc2)c(C2CCCCC2)c2ccc(C(=O)NS(=O)(=O)C3CC3)cc21
38
COc1ncc(-c2c(C3CCCCC3)c3ccc(C(=O)NS(=O)(=O)C4CC4)cc3n2C)cc1C#N
85
COc1ncc(-c2c(C3CCCCC3)c3ccc(C(=O)NS(=O)(=O)C4CC4)cc3n2C)cn1
46
Cn1c(-c2cnc(N3CCOCC3)nc2)c(C2CCCCC2)c2ccc(C(=O)NS(=O)(=O)C3CC3)cc21
30
Cn1cc(C2CCN(C(=O)OC(C)(C)C)CC2)c2ccc(C(=O)NS(=O)(=O)C3CC3)cc21
383

A: Cc1nn(-c2cnc(OCC3(C)CC3)c(Cl)c2)c2ccc(C(=O)NS(C)(=O)=O)cc12
B: Cn1c(-c2ccc(C#N)nc2)c(C2CCCCC2)c2ccc(C(=O)NS(=O)(=O)C3CC3)cc21
Q: // select label with min value of measured IC50 from [ A , B ] Refer to your chosen item by its label in the answer.
A: A
(A: 8 nM, B: 366 nM)

---

# assay info: Permeability across apical to basolateral side in human Caco2 cells
# Type: ADME, cell-based
# protocol conditions: Caco-2, read-out: permeability
endpoint label: Papp A→B (×10⁻⁶ cm/s)

Cn1cc(C2CCCCC2)c2cc(F)c(C(=O)NS(=O)(=O)C3CC3)cc21
12.9
Cc1cn(C2CCCCC2)c2ccc(C(=O)NS(=O)(=O)C3CC3)cc12
10.6

---

# maps each entry to its IC50
# target under test: CYP450 (Cytochrome P450 family, isoform not stated) (Homo sapiens, UniProt P04798+P05177+P05181+P08684+P10632+P10635+P11509+P11712+P13584+P20813+P20815+P20853+P24462+P24903+P33260+P33261+P51589+P78329+P98187+Q02928+Q08477+Q16678+Q16696+Q5TCH4+Q6VVX0+Q7Z449+Q8TAV3+Q96SQ9+Q9HB55)
# assay info: Inhibition of human CYP450
# Assay type: ADME, protein assay

Cc1cn(C2CCCCC2)c2ccc(C(=O)NS(=O)(=O)C3CC3)cc12
> 10 µM

Consider the additional molecule presented here.
Q: Name the recorded IC50 for Cn1cc(C2CCCCC2)c2cc(F)c(C(=O)NS(=O)(=O)C3CC3)cc21 .
A: > 10 µM

---

# target under test: Sodium channel protein type 5 subunit alpha (Homo sapiens, UniProt Q14524)
# Sequence (Q14524 whole entry): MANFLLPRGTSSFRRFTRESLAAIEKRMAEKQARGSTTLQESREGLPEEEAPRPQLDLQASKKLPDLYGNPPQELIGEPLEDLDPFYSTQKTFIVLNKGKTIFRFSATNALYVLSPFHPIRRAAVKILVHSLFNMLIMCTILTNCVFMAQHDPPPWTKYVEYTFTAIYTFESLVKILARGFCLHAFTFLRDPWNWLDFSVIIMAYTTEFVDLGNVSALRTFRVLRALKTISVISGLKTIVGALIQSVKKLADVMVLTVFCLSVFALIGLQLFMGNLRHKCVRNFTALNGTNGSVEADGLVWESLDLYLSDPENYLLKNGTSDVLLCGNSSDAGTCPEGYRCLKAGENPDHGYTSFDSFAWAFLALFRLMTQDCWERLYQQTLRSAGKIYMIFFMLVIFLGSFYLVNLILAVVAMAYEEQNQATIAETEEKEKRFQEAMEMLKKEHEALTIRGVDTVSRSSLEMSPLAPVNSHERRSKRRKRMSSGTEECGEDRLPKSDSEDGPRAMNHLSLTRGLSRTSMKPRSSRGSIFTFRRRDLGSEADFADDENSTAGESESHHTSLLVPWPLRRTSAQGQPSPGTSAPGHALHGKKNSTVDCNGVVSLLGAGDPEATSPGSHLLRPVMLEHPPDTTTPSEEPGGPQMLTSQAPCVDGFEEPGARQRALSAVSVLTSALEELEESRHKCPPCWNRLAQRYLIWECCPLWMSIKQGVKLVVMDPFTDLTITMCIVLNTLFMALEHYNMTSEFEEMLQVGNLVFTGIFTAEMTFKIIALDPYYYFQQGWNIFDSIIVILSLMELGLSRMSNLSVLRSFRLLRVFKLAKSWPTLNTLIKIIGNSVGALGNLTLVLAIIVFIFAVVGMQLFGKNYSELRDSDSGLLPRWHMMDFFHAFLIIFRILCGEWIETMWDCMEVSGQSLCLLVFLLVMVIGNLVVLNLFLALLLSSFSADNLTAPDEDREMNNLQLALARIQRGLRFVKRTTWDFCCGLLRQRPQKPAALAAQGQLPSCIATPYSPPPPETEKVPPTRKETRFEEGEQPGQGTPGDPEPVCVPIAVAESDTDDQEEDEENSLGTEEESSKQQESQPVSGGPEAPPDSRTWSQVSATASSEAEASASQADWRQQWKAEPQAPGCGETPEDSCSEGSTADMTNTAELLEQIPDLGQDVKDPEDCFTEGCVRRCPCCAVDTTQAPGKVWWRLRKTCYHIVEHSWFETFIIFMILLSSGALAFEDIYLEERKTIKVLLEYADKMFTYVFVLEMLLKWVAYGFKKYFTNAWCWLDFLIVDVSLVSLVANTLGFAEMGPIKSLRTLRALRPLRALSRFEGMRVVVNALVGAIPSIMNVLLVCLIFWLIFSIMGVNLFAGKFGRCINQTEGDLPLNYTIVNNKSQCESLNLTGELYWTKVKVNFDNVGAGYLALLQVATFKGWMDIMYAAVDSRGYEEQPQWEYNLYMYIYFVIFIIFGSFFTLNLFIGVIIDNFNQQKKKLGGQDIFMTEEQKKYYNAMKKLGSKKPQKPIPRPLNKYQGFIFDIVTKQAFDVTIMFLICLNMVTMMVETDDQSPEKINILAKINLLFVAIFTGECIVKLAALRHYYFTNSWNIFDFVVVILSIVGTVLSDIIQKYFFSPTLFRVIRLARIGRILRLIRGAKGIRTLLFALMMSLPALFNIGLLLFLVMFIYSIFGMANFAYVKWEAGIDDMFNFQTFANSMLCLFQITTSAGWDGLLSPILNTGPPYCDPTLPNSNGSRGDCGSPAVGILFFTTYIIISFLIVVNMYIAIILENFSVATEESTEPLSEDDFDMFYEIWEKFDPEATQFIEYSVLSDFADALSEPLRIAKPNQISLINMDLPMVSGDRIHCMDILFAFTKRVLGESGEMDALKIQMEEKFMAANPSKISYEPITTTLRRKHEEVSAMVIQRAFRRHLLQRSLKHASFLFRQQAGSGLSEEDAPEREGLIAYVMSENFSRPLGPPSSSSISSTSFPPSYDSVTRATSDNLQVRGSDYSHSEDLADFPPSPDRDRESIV
# assay info: Inhibition of human Nav1.5 at -50 mV holding potential by cell-based IonWorks barracuda automated electrophysiology method
pIC50: −log10 of the molar value.
endpoint label: pIC50

See these solved cases before continuing.
Cn1cc(C2=CCNCC2)c2ccc(C(=O)NS(=O)(=O)C3CC3)cc21
< 4.52
Cc1cn(C)c2cc(C(=O)NS(=O)(=O)C3CC3)ccc12
< 4.52
Cn1ccc2ccc(C(=O)NS(=O)(=O)C3CC3)cc21
< 4.52

Q: Return reported pIC50; argument: Cn1cc(C2CCCN(C(=O)OC(C)(C)C)C2)c2ccc(C(=O)NS(=O)(=O)C3CC3)cc21 (configuration not stated)
A: < 4.52

Q: I'd like to know its pIC50. The compound in question is Cn1cc(C2CCC2)c2ccc(C(=O)NS(=O)(=O)C3CC3)cc21
A: 5.17

---

# target under test: Sodium channel protein type 5 subunit alpha (Homo sapiens, UniProt Q14524)
# assay info: Inhibition of human Nav1.5 at -50 mV holding potential by cell-based IonWorks barracuda automated electrophysiology method
pIC50: −log10 of the molar value.
Readings of pIC50 for the listed compounds

Cn1cc(C2C3CC4CC2CN(C4)C3)c2ccc(C(=O)NS(=O)(=O)C3CC3)cc21 (configuration not stated)
< 4.52
Cn1cc(C2CCN(C(=O)OC(C)(C)C)CC2)c2ccc(C(=O)NS(=O)(=O)C3CC3)cc21
< 4.52
Cn1cc(C2CCCCC2)c2ccc(C(=O)NS(=O)(=O)C3CC3)cc21
5.62
Cn1cc(C2CCCNC2)c2ccc(C(=O)NS(=O)(=O)C3CC3)cc21 (configuration not stated)
< 4.52
Cn1cc(C2CCNCC2)c2ccc(C(=O)NS(=O)(=O)C3CC3)cc21
< 4.52
Cn1cc(C2CCCCC2)c2cc(F)c(C(=O)NS(=O)(=O)C3CC3)cc21
< 5.00

Q: Query: pIC50; subject: Cc1cn(C2CCCCC2)c2ccc(C(=O)NS(=O)(=O)C3CC3)cc12
A: 4.89
